TGI listing for selected compounds.
System: SK-MEL-28 melanoma
Assay: NCI tumour cell line growth inhibition, 48 h

Past entries and their recorded results:
CO[C@]12S[C@@H]3CCCC[C@@]31C(C)(C)C(=O)N2c1ccccc1 ... > 100 µM
Cc1ccc(-c2nc(-c3nccc4ccccc34)oc2-c2ccccc2)cc1 ... > 100 µM
CC(C)COC1Sc2ccccc2S1 ... 33.7 µM
COc1ccc(N=Nc2ccc3oc(=O)c(C(=O)Nc4ccccc4C)cc3c2)cc1 ... > 10 µM
S=C(N/N=C/c1ccccn1)N1CC2CCC(CC2)C1 ... 17.4 µM

Consider the record given below.
Could you tell me which TGI is on file for COc1ccc(C(=O)c2cc3c(N)c(C(=O)Nc4cccc(Br)c4C)sc3nc2C)cc1 ?
> 100 µM

* * *

System: HCT-15 colon
Assay: NCI tumour cell line growth inhibition, 48 h
Assign class by TGI: not lower than 30 µM means 1.0; lower than 30 µM means 0.0.

Some solved cases for reference:
NS(=O)(=O)c1ccc(NC(=O)C2C(=O)C(=O)N(c3ccc(S(N)(=O)=O)cc3)C2=O)cc1 (centres undefined) ... 1.0
Nc1ncc(-c2ccc3ncnc(N4CCc5ccc(Cl)cc54)c3c2)cc1C(F)(F)F ... 0.0

Is TGI for CS(=O)(=O)c1ccc2nc(-c3ccc(O)cc3)sc2c1 at or above 30 µM?
1.0

Now the compound O=C(N=c1nc(NC(=O)c2ccccc2)ss1)c1ccccc1
1.0

Query CCC(=O)N1C/C(=C/c2ccc(Br)cc2)C(=O)/C(=C/c2ccc(Br)cc2)C1 next
0.0

Try COc1ccc(-c2cc(-c3ccc(Cl)cc3)nc(NCCCCNc3ccnc4cc(Cl)ccc34)n2)cc1 next.
0.0

Next compound up: O=C(Nc1cc(Cl)ccc1O)c1cccc(Nc2ccnc(C(F)(F)F)c2)c1
1.0

Now give it for COC(=O)CN1C(=O)C2(C(=O)OC)OC1(c1ccc([N+](=O)[O-])cc1)C1C(=O)N(c3ccccc3)C(=O)C12 (centres undefined) too.
1.0

* * *

System: ACHN renal
Assay: NCI tumour cell line growth inhibition, 48 h
Catalogue of TGI values
Number in µM, nothing else.

Solved cases below.
COc1ccc(-c2oc3cc(OC(C)=O)cc(OC(C)=O)c3c(=O)c2OC)cc1 ... 45.8
CNC(=O)c1c(F)cccc1Nc1nc(Nc2cc3c(cc2OC)CCN3C(=O)CN(C)C)nc2[nH]ccc12 ... 23.1

Name the recorded TGI for O=CC1C(Cl)=Nc2nc3ccccc3n2C1c1ccccc1 (stereo not given) .
33.3

* * *

In this section, each of the molecules is paired with its reported TGI.
System: HCC-2998 colon
Experiment: NCI tumour cell line growth inhibition, 48 h

N#CC1(C#N)C=CC(=C2OCC3CCCN23)C=C1 (centres undefined) ... > 100 µM

Query: TGI; subject: CC1C[C@]2(C[C@@H](C)C(=O)O2)OC2CC3(C)C4CCC5C(C)(C)OC(=O)CC[C@@]56C[C@@]46CC[C@]3(C)C12 (some centres undefined)
> 100 µM

Further, for CCc1c(CNC2=NCCN2)c(CC)c(CNC2=NCCN2)c(CC)c1CNC1=NCCN1 ?
> 100 µM

* * *

System: OVCAR-4 ovarian
Assay: NCI tumour cell line growth inhibition, 48 h
VALUE TYPE: TGI (µM)
Numbers only; they are read as µM.

Use these answered entries as a reference point.
CCCCOc1ccc(/C=N/Nc2cc(C)nc3ccc(Br)cc23)cc1 ... 3.06
COc1ccccc1[As]=[As]c1ccccc1OC (stereo not drawn) ... 0.146
COC(=O)c1c(O)ccc2c1c1c(n2Cc2ccccc2OC)C(=O)c2ccccc2C1=O ... 26.9
CC(=O)/C(Br)=C/c1ccc(Br)o1 ... 22

What does the record list as TGI for CCOc1ccc(C(C[N+](=O)[O-])Sc2ccccc2N)cc1 (stereo not drawn) ?
26

Also need COc1c(C(C)(C)C)cc(CC2C(=O)C=CC2=O)cc1C(C)(C)C , thanks.
89.5

// repeat for COc1ccc2c(c1)C(OC)C1c3c(cc4c(c3-2)OCO4)CCN1C (stereo not drawn) and report
10.3

Would you kindly repeat that for Nc1ncc(-c2ccc3ncnc(N4CCc5ccc(Cl)cc54)c3c2)cc1C(F)(F)F ?
3.23

Note, next up: O=[N+]([O-])c1cc(-[n+]2cc([O-])on2)ccc1Cl
29.1

// query: S=C(N/N=C/c1ccccn1)N1CC2CCC(CC2)C1
20.4

* * *

System: NCI-H460 lung
Assay: NCI tumour cell line growth inhibition, 48 h
VALUE TYPE: TGI (µM)
Entry rule: numbers only, all in µM.

Nc1cc2ncnn2c(SCC(=O)N/N=C/C(Br)=C\c2ccccc2)n1 ... 53.5

Turning to the following compound.
Item under review: C=CCNC1=C2C[C@@H](C)C[C@H](OC)[C@H](O)[C@@H](C)/C=C(\C)[C@H](OC(N)=O)[C@@H](OC)/C=C\C=C(/C)C(=O)NC(=CC1=O)C2=O . Reported TGI?
15.9

* * *

System: SF-268 CNS
Assay: NCI tumour cell line growth inhibition, 48 h
Where a SMILES comes first, the peptide text is derived from it. The star is where a group is joined. Cbz = O=C(OCc1ccccc1)*; Bn = c1ccc(C*)cc1
VALUE TYPE: TGI

Use these answered entries as a reference point.
CN(/N=C/c1ccccn1)C1=NCCCN1 ... > 100 µM
NS(=O)(=O)c1ccc(NC(=O)C2C(=O)C(=O)N(c3ccc(S(N)(=O)=O)cc3)C2=O)cc1 (configuration not stated) ... > 100 µM
O=C(CC(C(=O)c1ccsc1)c1ccsc1)c1ccsc1 (configuration not stated) ... > 100 µM
C=CCOCn1cc(F)c(=O)[nH]c1=O ... > 100 µM
COC(=O)C(Cc1ccc(O)cc1)NC(=O)C(COCc1ccccc1)NC(=O)OCc1ccccc1 (configuration not stated) (Cbz-Ser(Bn)-Tyr-OMe; configuration not given here) ... 31.9 µM

Query the reported TGI for SF-268 CNS; item: O=S(=O)(O)c1ccc2c(N=Nc3ccc(S(=O)(=O)O)c4ccccc34)c(O)c(S(=O)(=O)O)cc2c1
> 100 µM

Lookup Nc1nc(N)c2ncn(CCOC(c3ccccc3)P(=O)(O)O)c2n1 (configuration not stated)
> 100 µM

Moving on to the next molecule: CC1=CP(=O)(c2ccccc2)C=C(C)C1=C(Cl)Cl (configuration not stated)
42.4 µM

Same lookup for Cc1c2ccncc2c(C)c2c1sc1ccccc12 , please.
64.3 µM

// query: COC(=O)c1c(C)c2c(c(C)c1C(=O)OC)-c1c(C)ccc3ccc(C)c-2c13
> 100 µM

* * *

Test system: RXF 393 renal
Assay: NCI tumour cell line growth inhibition, 48 h
VALUE TYPE: TGI (µM)
Numeric answer only, unit µM assumed.

Look over these answered cases.
CS(=O)(=O)c1ccc2nc(-c3ccc(O)cc3)sc2c1 ... 32.9
CCOc1ccc(C(C[N+](=O)[O-])Sc2ccccc2N)cc1 (stereo not given) ... 4.6
COc1ccc(CNc2nc(NCc3ccc(OC)cc3)nc(NC3CCCC3)n2)cc1 ... 3.61
OC1CCCC2CCC[N-]C12.OC1CCCC2CCC[N-]C12.[O]=[V][OH] (stereo not given) ... 35.4

Form field: reported TGI of Nc1cccc(OCC2CCCN3CCCCC23)c1 (stereo not given)
42.7

* * *

System: ACHN renal
Experiment: NCI tumour cell line growth inhibition, 48 h
# key: entry, value: TGI

Recorded TGI, per entry:
N#Cc1nc(C#N)c(Sc2ccccc2)c(Sc2ccccc2)c1Sc1ccccc1 ... 1.79 µM
COc1ccccc1[As]=[As]c1ccccc1OC (configuration not stated) ... 0.186 µM
Cc1ccc(S(=O)(=O)N/N=C2\CCC3(O)CC2(C)CCC2C3CC2(C)C)cc1 (configuration not stated) ... > 100 µM

Can you share its TGI? I mean this compound: CC1C[C@]2(C[C@@H](C)C(=O)O2)OC2CC3(C)C4CCC5C(C)(C)OC(=O)CC[C@@]56C[C@@]46CC[C@]3(C)C12 (some centres not stated)
> 100 µM

Also need Cc1nc2sc3c(N)ncnc3c2c(C)c1C , thanks.
> 25 µM

What do we get for NCCCNc1nc2ccccc2c2c(=O)c3cccc(Cl)c3sc12 ?
2.79 µM

Quick one: CC(=O)Oc1c2ccsc2c(OC(C)=O)c2ccsc12
2.28 µM

Now this one: C1CSCCSCSCCS1
> 100 µM

Could you do the same for c1cc2nnc1SCCSCCSCCSc1ccc(nn1)SCCSCCSCCS2 , please?
> 100 µM

Quick one: Nc1nc(N)c2ncn(CCOC(c3ccccc3)P(=O)(O)O)c2n1 (configuration not stated)
> 100 µM

Could you do the same for CC1=C(C(=O)Nc2ccc(F)c(Cl)c2)C(c2cccc(Oc3ccccc3)c2)NC(=S)N1 (configuration not stated) , please?
36.1 µM

Same question, Oc1ccc2ccccc2c1C=NCc1c(O)ccc2ccccc12 this time
> 100 µM

Now the same for NC(CCP(=O)(O)O)C(=O)O (configuration not stated)
> 100 µM

Also CCC(C)C1=C(O)[N+]2([O-])Oc3ccc(C4=C(O)C(=O)C(c5ccc(O)cc5)=C(O)C4=O)cc3OC2(C(C)CC)C(=O)N1O (configuration not stated) ?
> 100 µM

Let us now turn to COc1ccccc1/C=C\C(=O)C1COCN1 (configuration not stated)
26.3 µM

Entry O=C(N=c1nc(NC(=O)c2ccccc2)ss1)c1ccccc1 please
31.6 µM

Same read-out for COc1ccc(C(=O)c2cc3c(N)c(C(=O)Nc4cccc(Br)c4C)sc3nc2C)cc1 ?
> 100 µM

Param item: O=c1[nH][nH]c(=O)n1/N=C/c1ccccc1
> 100 µM

Could you do the same for COc1ccc(N=Nc2ccc3oc(=O)c(C(=O)Nc4ccccc4C)cc3c2)cc1 , please?
> 10 µM

Queued: COc1ccc(CNc2nc(NCc3ccc(OC)cc3)nc(NC3CCCC3)n2)cc1
> 100 µM

Then what about the compound c1ccc2c(c1)Cc1c(Cc3csc4ccccc34)ccc3cccc-2c13 ?
> 100 µM

Then c1ccc(-c2n(Cc3ccc4ccccc4c3)c3ccccc3[n+]2Cc2ccc3ccccc3c2)cc1 ?
2.36 µM
